Reported LD0 values for a set of molecules
# protocol-summary: Toxicological studies (LD50, LD0, MTD), intraperitoneal
# Type: in vivo, female Balb/c mice
# particulars: maximal non-lethal dose calculated from dose-mortality curves, single i.p. injection
measured-metric: LD0 (mg/kg)

| molecule | value-units | observed-result |
| --- | --- | --- |
| CC(=Cc1ccc(Br)o1)[N+](=O)[O-] [F, 2-bromo-5-(2-methyl-2-nitrovinyl)-furan] | mg/kg | 200 |
| O=[N+]([O-])C(Br)=Cc1ccco1 [Compound C, 2-(2-bromo-2-nitrovinyl)-furan] | mg/kg | 35 |
| O=[N+]([O-])C(Br)=Cc1ccc(Br)o1 [D, 2-bromo-5-(2-bromo-2-nitrovinyl)-furan] | mg/kg | 15 |
| CC(=Cc1ccco1)[N+](=O)[O-] [E, 2-(2-methyl-2-nitrovinyl)-furan] | mg/kg | 65 |
| O=[N+]([O-])C=Cc1ccco1 [A, 2-(2-nitrovinyl)-furan] | mg/kg | 50 |

---

# protocol-summary: Toxicological studies (LD50, LD0, MTD), intraperitoneal
# Format: in vivo, female Balb/c mice
# particulars: female, Balb/c, mouse, in vivo, ip; repeated intraperitoneal administration every 24 h during 14 days; read-out: MTD (every 24 h)
# Protocol: The same animal model used for in vivo anti-leishmanial tests was used to perform comparative toxicological studies of the β-nitrovinylfuran derivatives. The main excipient of the compositions used with this purpose was the sunflower oil. […] The maximal non-lethal doses (LD0) were calculated from the dose-mortality curves. […]

| molecule-smiles | MTD at 14 days (mg/kg) |
| --- | --- |
| O=[N+]([O-])C(Br)=Cc1ccc(Br)o1 | 5 |
| O=[N+]([O-])C=Cc1ccc(Br)o1 | 20 |
| O=[N+]([O-])C=Cc1ccco1 | 55 |
| CC(=Cc1ccc(Br)o1)[N+](=O)[O-] | 100 |
| CC(=Cc1ccco1)[N+](=O)[O-] | 60 |
